assay: in vitro; conditions: human, Caco-2, pH 7.4
Structures can show the parent of a compound that is named as a salt.
Reported metric: Papp B→A at 120 min (×10⁻⁶ cm/s)
Give your result in ×10⁻⁶ cm/s as a bare value.

Q: Requested field: Papp B→A at 120 min. Item: CC(C)OC(=O)[C@H](C)N[P@](=O)(CO[C@H](C)Cn1cnc2c(N)ncnc21)Oc1ccccc1 [TAF, tenofovir alafenamide fumarate]
A: 17.8

* * *

assay: Caco-2 bidirectional assay, effect of piperine and tetrahydropiperine on permeability of TDF; conditions: human, Caco-2, pH 7.4
Counter-ions that a name gives are not always drawn.
Reported metric: Papp A→B at 120 min, 200 μM (×10⁻⁶ cm/s)
Reply numerically in ×10⁻⁶ cm/s, unit not repeated.

Q: Recorded Papp A→B at 120 min, 200 μM of CC(C)OC(=O)OCOP(=O)(CO[C@H](C)Cn1cnc2c(N)ncnc21)OCOC(=O)OC(C)C [TDF, tenofovir disoproxil fumarate] , please.
A: 3.77

* * *

Please respond with reported Papp A→B at 120 min for every item in the list.
assay: Caco-2 bidirectional assay, effect of piperine and tetrahydropiperine on permeability of TDF; conditions: human, Caco-2, pH 7.4
Structures can show the parent of a compound that is named as a salt.
Numbers only; they are read as ×10⁻⁶ cm/s.

Q: I have this compound here, C[C@H]1O[C@@H](O[C@H]2[C@@H](O)C[C@H](O[C@H]3[C@@H](O)C[C@H](O[C@H]4CC[C@@]5(C)[C@H](CC[C@@H]6[C@@H]5C[C@@H](O)[C@]5(C)[C@@H](C7=CC(=O)OC7)CC[C@]65O)C4)O[C@@H]3C)O[C@@H]2C)C[C@H](O)[C@@H]1O [Digoxin] , and I need its recorded Papp A→B at 120 min.
A: 0.816

Q: Input CC(C)OC(=O)OCOP(=O)(CO[C@H](C)Cn1cnc2c(N)ncnc21)OCOC(=O)OC(C)C [TDF, tenofovir disoproxil fumarate]
A: 2.55

* * *

test: in vitro; conditions: human, Caco-2, pH 7.4
Where a name gives a salt, the structure may show the parent alone.
Reported metric: Papp A→B at 120 min (×10⁻⁶ cm/s)
Record the value in ×10⁻⁶ cm/s, omitting the unit from your answer.

Q: Give its Papp A→B at 120 min value. Item: CC(C)OC(=O)[C@H](C)N[P@](=O)(CO[C@H](C)Cn1cnc2c(N)ncnc21)Oc1ccccc1 [TAF, tenofovir alafenamide fumarate]
A: 3.45

* * *

assay: Caco-2 bidirectional assay, effect of piperine on permeability of darunavir; type: in vitro ADME; conditions: human, Caco-2, pH 7.4
Consider the following compounds; for each one, report its Papp B→A at 120 min.
Quick note: give the figure in ×10⁻⁶ cm/s, leave out the unit.

Q: Find the recorded Papp B→A at 120 min belonging to C[C@H]1O[C@@H](O[C@H]2[C@@H](O)C[C@H](O[C@H]3[C@@H](O)C[C@H](O[C@H]4CC[C@@]5(C)[C@H](CC[C@@H]6[C@@H]5C[C@@H](O)[C@]5(C)[C@@H](C7=CC(=O)OC7)CC[C@]65O)C4)O[C@@H]3C)O[C@@H]2C)C[C@H](O)[C@@H]1O [Digoxin] and report it.
A: 14.2

Q: Proceed to CC(C)CN(C[C@@H](O)[C@H](Cc1ccccc1)NC(=O)O[C@H]1CO[C@H]2OCC[C@H]21)S(=O)(=O)c1ccc(N)cc1 [Darunavir]
A: 21.7

* * *

Exercise: state measured Papp B→A at 120 min for each of the compounds provided.
test: Caco-2 bidirectional assay, effect of piperine on permeability of dolutegravir; details: human, Caco-2, pH 7.4
Provide the reading as a plain figure in ×10⁻⁶ cm/s.

Q: Param item = `C[C@H]1O[C@@H](O[C@H]2[C@@H](O)C[C@H](O[C@H]3[C@@H](O)C[C@H](O[C@H]4CC[C@@]5(C)[C@H](CC[C@@H]6[C@@H]5C[C@@H](O)[C@]5(C)[C@@H](C7=CC(=O)OC7)CC[C@]65O)C4)O[C@@H]3C)O[C@@H]2C)C[C@H](O)[C@@H]1O` ; retrieve measured Papp B→A at 120 min.
A: 28.9

Q: And the next one, `C[C@@H]1CCO[C@H]2Cn3cc(C(=O)NCc4ccc(F)cc4F)c(=O)c(O)c3C(=O)N12` ?
A: 84.3

* * *

assay: in vitro; conditions: human, Caco-2, pH 7.4
Reported metric: Papp B→A

Q: Entry under review: `C[C@H]1O[C@@H](O[C@H]2[C@@H](O)C[C@H](O[C@H]3[C@@H](O)C[C@H](O[C@H]4CC[C@@]5(C)[C@H](CC[C@@H]6[C@@H]5C[C@@H](O)[C@]5(C)[C@@H](C7=CC(=O)OC7)CC[C@]65O)C4)O[C@@H]3C)O[C@@H]2C)C[C@H](O)[C@@H]1O` . Reported Papp B→A?
A: 20.5 ×10⁻⁶ cm/s

* * *

molecular target: P-gp (Homo sapiens); experiment: in vitro; format: cell-based; settings: pH 7.4, drug alone (Digoxine 10 μM; TAF 100 μM)
Sequence (P08183 whole entry): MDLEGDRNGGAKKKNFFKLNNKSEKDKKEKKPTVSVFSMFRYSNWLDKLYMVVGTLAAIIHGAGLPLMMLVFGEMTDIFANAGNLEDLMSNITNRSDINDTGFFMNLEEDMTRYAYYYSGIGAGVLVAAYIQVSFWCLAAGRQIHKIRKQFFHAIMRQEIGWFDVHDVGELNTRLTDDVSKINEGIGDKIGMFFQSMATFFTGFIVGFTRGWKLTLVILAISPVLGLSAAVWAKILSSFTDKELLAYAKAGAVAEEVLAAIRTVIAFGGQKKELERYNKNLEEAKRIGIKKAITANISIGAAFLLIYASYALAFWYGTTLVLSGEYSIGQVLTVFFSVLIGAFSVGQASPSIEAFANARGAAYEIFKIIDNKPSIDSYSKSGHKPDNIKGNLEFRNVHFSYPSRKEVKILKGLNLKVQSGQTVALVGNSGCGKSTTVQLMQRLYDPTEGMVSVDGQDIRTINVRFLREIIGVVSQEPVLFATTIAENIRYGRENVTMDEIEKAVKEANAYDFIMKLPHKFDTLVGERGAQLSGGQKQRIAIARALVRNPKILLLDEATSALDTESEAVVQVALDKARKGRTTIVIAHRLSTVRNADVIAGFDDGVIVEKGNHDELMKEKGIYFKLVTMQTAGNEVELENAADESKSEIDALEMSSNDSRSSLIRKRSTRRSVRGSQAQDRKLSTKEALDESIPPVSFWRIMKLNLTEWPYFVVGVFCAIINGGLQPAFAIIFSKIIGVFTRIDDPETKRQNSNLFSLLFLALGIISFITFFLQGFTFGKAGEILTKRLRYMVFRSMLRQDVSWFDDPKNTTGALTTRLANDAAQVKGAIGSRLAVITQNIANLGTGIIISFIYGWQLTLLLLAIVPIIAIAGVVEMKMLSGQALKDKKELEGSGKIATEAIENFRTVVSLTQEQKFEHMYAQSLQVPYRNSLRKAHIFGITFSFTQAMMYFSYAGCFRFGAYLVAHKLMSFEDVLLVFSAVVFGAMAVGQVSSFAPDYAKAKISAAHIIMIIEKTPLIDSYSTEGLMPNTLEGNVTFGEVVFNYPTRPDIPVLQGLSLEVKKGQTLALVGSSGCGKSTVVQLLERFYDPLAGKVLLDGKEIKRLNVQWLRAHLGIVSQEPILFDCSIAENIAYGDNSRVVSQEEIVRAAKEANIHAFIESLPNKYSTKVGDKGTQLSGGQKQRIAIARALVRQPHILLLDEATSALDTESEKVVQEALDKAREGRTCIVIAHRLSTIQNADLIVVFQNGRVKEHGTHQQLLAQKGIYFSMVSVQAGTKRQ
Counter-ions that a name gives are not always drawn.
Reported metric: inhibition at 120 min, 100 μM (%)
Number only, in %; omit the unit.

Q: I would be grateful if you could share the reported inhibition at 120 min, 100 μM for CC(C)OC(=O)[C@H](C)N[P@](=O)(CO[C@H](C)Cn1cnc2c(N)ncnc21)Oc1ccccc1 [TAF, tenofovir alafenamide fumarate] .
A: 0
